Measured IC50, listed per entry for reference.
tested on: Phosphorylated Ribosomal Protein S6 (RPS6) in THP-1 cells; assay: THP-1 RPS6 ELISA assay; type: cell-based, human; details: Homo sapiens, THP-1, THP-1 cells, 10 nM MCP-1; read-out: PI3Kγ_THP1_RPS6_ELISA IC50
Counter-ions that a name gives are not always drawn.
endpoint: IC50

CC(NC(=O)c1c(N)nn2cccnc12)c1cc(Cl)c2cncn2c1N1CCS(=O)(=O)C(C)(C)C1 (stereo not drawn) [Example 40, trifluoroacetate salt]    < 500 nM
Cc1nc(Cl)c2c(Cl)cc(C(C)NC(=O)c3c(N)nn4cccnc34)c(-c3cn[nH]c3)n12 (racemic) [Example 122, trifluoroacetate salt]    < 500 nM
CC(=O)N[C@H]1CCN(c2c(C(C)NC(=O)c3c(N)nn4cccnc34)cc(Cl)c3cn[nH]c23)C1 (stereo partly drawn) [Example 95, trifluoroacetate]    < 1000 nM
CC1CN(c2c(C(NC(=O)c3c(N)nn4cccnc34)C(F)(F)F)cc(Cl)c3c(C#N)ncn23)CCS1(=O)=O (stereo not drawn) [Example 177, trifluoroacetate salt]    < 1000 nM
CC(NC(=O)c1c(N)nn2cccnc12)c1cc(Cl)c2cncn2c1N1C[C@H](O)[C@@H](F)C1 (mixture of isomers) [Example 35, trifluoroacetate salt]    < 500 nM
CC1CN(c2c(CNC(=O)c3c(N)nn4cccnc34)cc(Cl)c3c(C#N)ncn23)CCS1(=O)=O (stereo not drawn) [Example 174, trifluoroacetate salt]    > 1000 nM

---

molecular target: PI3Kγ (p110γ) Recombinant Human Protein (Homo sapiens (Human)); experiment: PI3K-γ scintillation proximity assay; details: 2 μM ATP, 20 μM PIP2
Sequence (P48736 whole entry): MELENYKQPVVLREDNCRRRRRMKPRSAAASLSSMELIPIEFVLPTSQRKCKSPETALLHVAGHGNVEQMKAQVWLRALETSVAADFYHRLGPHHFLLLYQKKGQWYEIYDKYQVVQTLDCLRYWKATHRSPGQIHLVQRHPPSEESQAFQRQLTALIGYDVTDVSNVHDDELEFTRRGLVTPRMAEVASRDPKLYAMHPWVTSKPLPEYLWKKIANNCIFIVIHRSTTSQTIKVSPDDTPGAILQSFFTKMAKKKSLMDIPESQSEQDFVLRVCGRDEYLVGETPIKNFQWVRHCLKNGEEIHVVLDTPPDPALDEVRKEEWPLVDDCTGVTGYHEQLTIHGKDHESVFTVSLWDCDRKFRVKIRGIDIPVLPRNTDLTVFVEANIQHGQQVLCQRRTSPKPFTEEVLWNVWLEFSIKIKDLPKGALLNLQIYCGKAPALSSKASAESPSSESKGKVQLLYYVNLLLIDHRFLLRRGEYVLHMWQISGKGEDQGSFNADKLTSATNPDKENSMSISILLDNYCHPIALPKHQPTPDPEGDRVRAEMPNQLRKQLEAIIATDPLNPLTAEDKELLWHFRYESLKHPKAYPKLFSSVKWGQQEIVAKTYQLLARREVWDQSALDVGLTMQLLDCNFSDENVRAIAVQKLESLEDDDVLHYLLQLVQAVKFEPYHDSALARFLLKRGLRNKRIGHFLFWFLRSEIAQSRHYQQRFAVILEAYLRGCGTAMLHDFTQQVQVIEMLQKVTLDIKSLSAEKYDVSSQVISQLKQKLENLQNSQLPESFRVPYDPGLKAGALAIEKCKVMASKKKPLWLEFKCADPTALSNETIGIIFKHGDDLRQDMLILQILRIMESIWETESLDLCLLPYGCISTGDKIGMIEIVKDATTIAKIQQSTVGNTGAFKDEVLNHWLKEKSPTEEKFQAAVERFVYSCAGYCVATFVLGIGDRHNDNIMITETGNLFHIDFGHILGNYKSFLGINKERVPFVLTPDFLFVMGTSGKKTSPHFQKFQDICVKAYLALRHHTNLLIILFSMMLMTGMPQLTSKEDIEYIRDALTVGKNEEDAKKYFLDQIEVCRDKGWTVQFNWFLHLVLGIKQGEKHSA
pIC50: −log10 of the molar value. Counter-ions that a name gives are not always drawn.
endpoint: pIC50

C[C@H](NC(=O)c1c(N)nn2cccnc12)c1cc(Cl)c2c(F)cnn2c1N1CCS(=O)(=O)CC1 [Example 58, trifluoroacetate]    > 7.00
CC(NC(=O)c1c(N)nn2cccnc12)c1cc(Cl)c2cn[nH]c2c1N1CCS(=O)(=O)CC1 (stereo not shown) [Example 94, trifluoroacetate]    > 7.00
CCOc1c(C(C)NC(=O)c2c(N)nn3cccnc23)cc(Cl)c2cn(CCOC)nc12 (stereo not shown) [Example 5a, trifluoroacetate]    > 5.70
CC(NC(=O)c1c(N)nn2cccnc12)c1cc(Cl)c2cn[nH]c2c1N1CCC(O)C1 (racemic) [Example 90A, bis(trifluoroacetate)]    > 7.00
CCOc1c(C(C)NC(=O)c2c(N)nn3ccc(-c4cccnc4)nc23)cc(Cl)c2cn[nH]c12 (stereo not shown) [Example 50, bis(trifluoroacetate)]    > 7.00
CCOc1c(C(C)NC(=O)c2c(N)nn3cccnc23)cc(Cl)c2cn(CC#N)nc12 (stereo not shown) [Example 7a, trifluoroacetate]    < 5.70
CC(NC(=O)c1c(N)nn2cccnc12)c1cc(Cl)c2cncn2c1N1CCC2(CC1)CNC(=O)O2 (stereo not shown) [Example 80, trifluoroacetate]    > 7.00
CCOc1c(C(C)NC(=O)c2c(N)nc3ccc(C)nn23)cc(Cl)c2cn[nH]c12 (stereo not shown)    > 6.30
CCOc1c(C(C)NC(=O)c2c(N)nn3cccnc23)cc(Cl)c2c(Br)n[nH]c12 (stereo not shown) [Example 52, trifluoroacetate]    > 7.00
CC(NC(=O)c1c(N)nn2cccnc12)c1cc(Cl)c2c(C#N)cnn2c1N1CCS(=O)(=O)CC1 (stereo not shown) [Example 60, trifluoroacetate]    > 7.00
CC(NC(=O)c1c(N)nn2cccnc12)c1cc(Cl)c2cncn2c1N1CCCC(F)C1 (stereo not shown) [Example 73C-73D]    > 6.30
CC(NC(=O)c1c(N)nn2cccnc12)c1cc(Cl)c2cncn2c1N1CCC(Br)CC1 (racemic) [Example 147, trifluoroacetate salt]    > 7.00
CC(NC(=O)c1c(N)nn2cccnc12)c1cc(Cl)c2cncn2c1-c1cncc(C#N)c1 (racemic) [Example 137, trifluoroacetate salt]    > 7.00

---

system: Phosphorylated Ribosomal Protein S6 (RPS6) in THP-1 cells; experiment: THP-1 RPS6 ELISA assay; assay type: cell-based, human; settings: Homo sapiens, THP-1, THP-1 cells, 10 nM MCP-1; read-out: PI3Kγ_THP1_RPS6_ELISA IC50
Where a name gives a salt, the structure may show the parent alone.
Measured IC50, listed per entry for reference.
endpoint: IC50

CC(NC(=O)c1c(N)nn2cccnc12)c1cc(Cl)c2cncn2c1N1CCC(F)(F)C1 (stereo not drawn) [Example 68, bistrifluoroacetate]    < 500 nM
CC(NC(=O)c1c(N)nn2cccnc12)c1cc(Cl)c2c(Cl)cnn2c1N1CCS(=O)(=O)C(C)(C)C1 (stereo not drawn) [Example 116, trifluoroacetate]    < 500 nM
CCOc1c(C(C)NC(=O)c2c(N)nn3cccnc23)cc(Cl)c2cn[nH]c12 (single isomer, unassigned) [Example 3a, trifluoroacetate]    < 500 nM
CC(NC(=O)c1c(N)nn2cccnc12)c1cc(Cl)c2cncn2c1N1CCNS(=O)(=O)CC1 (racemic)    < 500 nM
CNS(=O)(=O)c1ccc(-c2c(C(C)NC(=O)c3c(N)nn4cccnc34)cc(Cl)c3cncn23)cc1 (racemic) [Example 135, trifluoroacetate salt]    > 1000 nM
CC(NC(=O)c1c(N)nn2cccnc12)c1cc(Cl)c2cncn2c1N1CCC(C)(O)CC1 (stereo not drawn) [Example 87, trifluoroacetate]    < 500 nM

---

target: PI3Kδ (p110δ/p85α) Recombinant Human Protein (Homo sapiens (Human), UniProt O00329); assay: PI3Kδ scintillation proximity assay; format: biochemical; details: 2 μM ATP, 20 μM PIP2
Sequence (O00329 whole entry): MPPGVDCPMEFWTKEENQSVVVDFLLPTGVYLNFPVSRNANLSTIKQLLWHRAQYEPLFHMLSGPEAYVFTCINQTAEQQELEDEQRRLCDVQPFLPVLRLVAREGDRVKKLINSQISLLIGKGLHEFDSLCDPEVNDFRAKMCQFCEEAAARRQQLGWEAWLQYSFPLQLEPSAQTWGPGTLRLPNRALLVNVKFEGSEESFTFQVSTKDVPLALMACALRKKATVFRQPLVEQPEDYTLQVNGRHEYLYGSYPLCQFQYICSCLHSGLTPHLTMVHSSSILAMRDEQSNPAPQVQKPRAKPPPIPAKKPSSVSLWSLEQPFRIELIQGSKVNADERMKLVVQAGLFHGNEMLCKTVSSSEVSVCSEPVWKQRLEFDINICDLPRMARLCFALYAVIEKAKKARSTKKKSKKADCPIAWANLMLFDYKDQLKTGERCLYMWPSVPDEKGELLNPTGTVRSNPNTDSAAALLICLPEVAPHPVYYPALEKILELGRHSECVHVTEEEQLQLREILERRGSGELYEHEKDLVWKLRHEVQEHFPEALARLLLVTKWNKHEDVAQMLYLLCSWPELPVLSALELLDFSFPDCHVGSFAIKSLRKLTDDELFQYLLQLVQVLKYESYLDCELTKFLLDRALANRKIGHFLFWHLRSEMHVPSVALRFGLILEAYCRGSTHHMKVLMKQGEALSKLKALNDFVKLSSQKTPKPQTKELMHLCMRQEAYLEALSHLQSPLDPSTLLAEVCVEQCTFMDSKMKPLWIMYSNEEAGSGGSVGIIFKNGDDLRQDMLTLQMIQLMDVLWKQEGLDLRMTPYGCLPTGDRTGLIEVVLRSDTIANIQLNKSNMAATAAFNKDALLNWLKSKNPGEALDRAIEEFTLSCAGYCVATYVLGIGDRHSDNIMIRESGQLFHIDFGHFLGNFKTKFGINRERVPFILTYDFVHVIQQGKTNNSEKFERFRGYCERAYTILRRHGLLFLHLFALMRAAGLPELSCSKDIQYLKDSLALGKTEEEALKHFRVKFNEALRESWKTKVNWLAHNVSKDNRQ
Sequence (P27986 whole entry partner): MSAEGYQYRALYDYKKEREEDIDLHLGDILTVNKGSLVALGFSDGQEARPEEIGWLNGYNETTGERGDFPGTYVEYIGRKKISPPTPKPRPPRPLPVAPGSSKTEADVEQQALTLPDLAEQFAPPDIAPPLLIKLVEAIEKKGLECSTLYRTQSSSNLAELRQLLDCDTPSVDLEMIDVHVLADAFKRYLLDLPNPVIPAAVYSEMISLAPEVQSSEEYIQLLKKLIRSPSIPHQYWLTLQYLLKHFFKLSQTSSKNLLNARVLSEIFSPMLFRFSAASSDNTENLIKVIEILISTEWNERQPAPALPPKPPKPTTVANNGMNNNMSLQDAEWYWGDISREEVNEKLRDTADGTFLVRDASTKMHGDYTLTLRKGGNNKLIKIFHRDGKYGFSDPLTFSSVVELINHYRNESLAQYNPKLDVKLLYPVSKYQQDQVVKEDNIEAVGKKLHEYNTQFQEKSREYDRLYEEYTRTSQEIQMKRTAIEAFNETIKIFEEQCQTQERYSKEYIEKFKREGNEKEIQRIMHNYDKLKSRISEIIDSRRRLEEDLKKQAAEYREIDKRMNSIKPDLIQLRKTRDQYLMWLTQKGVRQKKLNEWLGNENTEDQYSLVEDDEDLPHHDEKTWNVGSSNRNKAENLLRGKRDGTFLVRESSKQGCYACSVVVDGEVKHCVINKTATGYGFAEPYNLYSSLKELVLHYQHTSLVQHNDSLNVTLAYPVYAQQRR
Where a name gives a salt, the structure may show the parent alone.
endpoint: IC50

CC(NC(=O)c1c(N)nn2cccnc12)c1cc(Cl)c2cncn2c1N1CCC(C)(C)C1 (stereo not shown) [Example 74, bistrifluoroacetate]    < 100 nM
CNC(=O)C1CCN(c2c(C(C)NC(=O)c3c(N)nn4cccnc34)cc(Cl)c3cn[nH]c23)C1 (single isomer, unassigned) [Example 103B, trifluoroacetate]    < 500 nM
CC(NC(=O)c1c(N)nn2cccnc12)c1cc(Cl)c2cncn2c1N1CCC(Br)CC1 (racemic) [Example 147, trifluoroacetate salt]    < 500 nM
CC(NC(=O)c1c(N)nn2cccnc12)c1cc(Cl)c2ccnn2c1N1CCCS(=O)(=O)CC1 (stereo not shown) [Example 109, trifluoroacetate]    < 100 nM
CC(NC(=O)c1c(N)nn2cccnc12)c1cc(Cl)c2cncn2c1N1CCC[C@@H]1C (stereo partly shown) [Example 71B, bistrifluoroacetate]    < 100 nM
CC(NC(=O)c1c(N)nn2cccnc12)c1cc(Cl)c2cncn2c1C1CCCC1 (stereo not shown) [Example 62, trifluoroacetate]    < 500 nM
Cc1ncc2c(Cl)cc(C(C)NC(=O)c3c(N)nn4cccnc34)c(-c3ccccc3)n12 (racemic) [Example 121, trifluoroacetate salt]    < 500 nM
Cc1nc(C#N)c2c(Cl)cc(C(C)NC(=O)c3c(N)nn4cccnc34)c(-c3ccccc3)n12 (racemic) [Example 125, trifluoroacetate salt]    < 500 nM
CC(NC(=O)c1c(N)nn2cccnc12)c1cc(Cl)c2cncn2c1N1CCCC1 (racemic) [Example 142, trifluoroacetate salt]    < 100 nM
CCOc1c(C(C)NC(=O)c2c(N)nc3ccc(-c4cncc(CO)c4)nn23)cc(Cl)c2cn[nH]c12 (stereo not shown) [Example 48]    < 100 nM
CCOc1c(C(C)NC(=O)c2c(N)nc3ccc(C)nn23)cc(Cl)c2cn[nH]c12 (stereo not shown) [Example 46]    < 500 nM
CC(NC(=O)c1c(N)nn2cccnc12)c1cc(Cl)c2cncn2c1N1CCS(=N)(=O)CC1 (stereo not shown) [Example 39]    < 100 nM
CC(NC(=O)c1c(N)nn2cccnc12)c1cc(Cl)c2c(C#N)ncn2c1N1CCS(=O)(=O)C(C)C1 (stereo not shown) [Example 165, trifluoroacetate salt]    < 2000 nM

---

target: PI3Kδ (p110δ/p85α) Recombinant Human Protein (Homo sapiens (Human), UniProt O00329); assay: PI3Kδ scintillation proximity assay; assay type: biochemical; settings: 2 μM ATP, 20 μM PIP2
Counter-ions that a name gives are not always drawn.
endpoint: IC50

CC(NC(=O)c1c(N)nn2cccnc12)c1cc(Cl)c2cncn2c1-c1ccccn1 (racemic) [Example 133, trifluoroacetate salt]    < 500 nM
CC(NC(=O)c1c(N)nn2cccnc12)c1cc(Cl)c2c(C#N)ncn2c1-c1cccnc1 (racemic) [Example 128, trifluoroacetate salt]    < 2000 nM
CC(NC(=O)c1c(N)nn2cccnc12)c1cc(Cl)c2c(Cl)ncn2c1N1CCC(C#N)CC1 (racemic) [Example 163, trifluoroacetate salt]    < 100 nM

---

tested on: Phosphorylated Ribosomal Protein S6 (RPS6) in THP-1 cells; experiment: THP-1 RPS6 ELISA assay; type: cell-based, human; conditions: Homo sapiens, THP-1, THP-1 cells, 10 nM MCP-1; read-out: PI3Kγ_THP1_RPS6_ELISA IC50
pIC50: −log10 of the molar value. Counter-ions that a name gives are not always drawn.
endpoint: pIC50

C#Cc1nc(C)n2c(-c3ccccc3)c(C(C)NC(=O)c3c(N)nn4cccnc34)cc(Cl)c12 (racemic) [Example 126]    > 6.30
CCOC(=O)C1CCN(c2c(C(C)NC(=O)c3c(N)nn4cccnc34)cc(Cl)c3cn[nH]c23)CC1 (stereo not drawn) [Example 106, trifluoroacetate]    < 6.00
CC(NC(=O)c1c(N)nn2cccnc12)c1cc(Cl)c2c(C#N)ncn2c1-c1cccnc1 (racemic) [Example 128, trifluoroacetate salt]    < 6.00
CC(NC(=O)c1c(N)nn2cccnc12)c1cc(Cl)c2cncn2c1N1CCCC(C)(C#N)C1 (single isomer, unassigned) [Example 77A]    > 6.30
CC(NC(=O)c1c(N)nn2cccnc12)c1cc(Cl)c2cncn2c1N1CCCC[C@H]1C (stereo partly drawn) [Example 72A, bistrifluoroacetate]    > 6.30
CCOc1c(C(C)NC(=O)c2c(N)nc3ccc(-c4cncc(CO)c4)nn23)cc(Cl)c2cn[nH]c12 (stereo not drawn) [Example 48]    > 6.30

Data origin: patent US10065963B2
